Readings of pKi for the listed compounds
# ASSAYED_SYSTEM: purified human Factor XIa (Homo sapiens (Human), UniProt P03951)
# Sequence (P03951 whole entry, looked up): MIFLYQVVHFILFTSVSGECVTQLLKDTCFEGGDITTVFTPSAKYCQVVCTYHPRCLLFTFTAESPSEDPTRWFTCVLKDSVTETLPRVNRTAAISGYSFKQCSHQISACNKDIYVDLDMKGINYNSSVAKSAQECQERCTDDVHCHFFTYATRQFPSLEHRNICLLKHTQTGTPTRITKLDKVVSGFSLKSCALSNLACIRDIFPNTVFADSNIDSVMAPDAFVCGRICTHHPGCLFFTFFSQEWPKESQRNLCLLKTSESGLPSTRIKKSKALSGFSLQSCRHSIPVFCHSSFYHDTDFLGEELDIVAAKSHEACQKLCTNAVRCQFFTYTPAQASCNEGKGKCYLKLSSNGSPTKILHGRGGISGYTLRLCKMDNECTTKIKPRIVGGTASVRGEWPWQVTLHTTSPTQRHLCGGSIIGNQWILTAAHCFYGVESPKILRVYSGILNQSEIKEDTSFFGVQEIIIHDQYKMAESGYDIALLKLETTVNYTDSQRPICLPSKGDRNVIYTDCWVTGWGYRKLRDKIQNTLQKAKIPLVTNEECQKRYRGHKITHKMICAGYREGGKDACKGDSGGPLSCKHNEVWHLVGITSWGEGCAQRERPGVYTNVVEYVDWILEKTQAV
# Sequence (P03951 whole entry partner, looked up): as the sequence (P03951 whole entry, looked up) above
# ASSAY_DETAILS: biochemical
# Assay type: biochemical
# CONDITION: read-out: Factor XIa Ki
Counter-ions that a name gives are not always drawn.
// scale note: pKi = -log10(conc_M); give the bare number

See these solved cases before continuing.
COMPOUND	PARAMETER	MEASURED_VALUE
C[C@@H]1CCC[C@H](N2CCC(c3c(Br)ccc(Cl)c3F)=CC2=O)c2cc(ccn2)-c2c(F)cc(F)cc2NC1=O	pKi	8.07
C[C@@H]1CCC[C@H](N2CCC(c3c(Br)ccc(Cl)c3F)=CC2=O)c2cc(ccn2)-c2cc(F)c(F)cc2NC1=O [Example 206, TFA salt]	pKi	7.93
COC(=O)Nc1ccc2c(c1)NC(=O)[C@H](C)CCC[C@H](N1CCC(c3cc(Cl)ccc3OC(F)F)=CC1=O)c1cc-2ccn1 [Example 44, TFA salt]	pKi	9.89

Task item: Item: C[C@@H]1CCC[C@H](N2CCC(c3c(F)ccc(Cl)c3F)=CC2=O)c2cc(ccn2)-c2cc(Cl)c(O)cc2NC1=O [Example 19, TFA salt] Test system: purified human Factor XIa (Homo sapiens (Human), UniProt P03951) Read-out: pKi Value: ?
Reply: 7.81

Task item: Item: C[C@@H]1CCC[C@H](N2CCC(c3c(N)ccc(Cl)c3F)=CC2=O)c2cc(ccn2)-c2ccccc2NC1=O [Example 66, TFA salt] Test system: purified human Factor XIa (Homo sapiens (Human), UniProt P03951) Read-out: pKi Value: ?
Reply: 7.18

###

# ASSAYED_SYSTEM: purified human Factor XIa (Homo sapiens (Human), UniProt P03951)
# ASSAY_DETAILS: biochemical
# Assay type: biochemical
# CONDITION: read-out: Factor XIa Ki
Counter-ions that a name gives are not always drawn.
PARAMETER: Ki

COMPOUND	Ki
COC(=O)Nc1ccc2c(c1)NC(=O)[C@H](C)CCC[C@H](N1CCC(c3c(C#N)ccc(C#N)c3F)=CC1=O)c1cc-2cc(OC)n1	5.42 nM
COC(=O)Nc1ccc2c(c1)NC(=O)[C@H](C)CCC[C@H](N1CCC(c3c(F)cccc3C#N)=CC1=O)c1cc-2ccn1 [Example 4, TFA salt]	2.64 nM
COC(=O)Nc1ccc2c(c1)NC(=O)[C@H](C)CCC[C@H](N1CCC(c3ccnc(Cl)c3)=CC1=O)c1cc-2ccn1 [Example 156, TFA salt]	> 446 nM
CC(=O)Nc1ccc(Cl)c(F)c1C1=CC(=O)N([C@H]2CCC[C@@H](C)C(=O)Nc3ccccc3-c3ccnc2c3)CC1	75.1 nM
COC(=O)Nc1ccc2c(c1)NC(=O)[C@H](C)CCC[C@H](N1CCC(C3CCCCC3)=CC1=O)c1cc-2ccn1 [Example 98, TFA salt]	30.1 nM

Task item: Sample C[C@@H]1CCC[C@H](N2CCC(c3c(C#N)ccc(Cl)c3F)=CC2=O)c2cc(ccn2)-c2c(F)cc(F)cc2NC1=O [Example 207, TFA salt] — what was its Ki?
Reply: 2.75 nM

Task item: Sample C[C@@H]1CCC[C@H](N2CCC(c3c(F)ccc(Cl)c3F)=CC2=O)c2cc(ccn2)-n2nc(C3CC3)cc2NC1=O — what was its Ki?
Reply: 302 nM

Task item: Sample C[C@@H]1CCC[C@H](N2CCC(c3c(F)ccc(Cl)c3F)=CC2=O)c2cc(ccn2)-c2cc(-c3nn[nH]n3)ccc2NC1=O — what was its Ki?
Reply: 1.34 nM

Task item: Sample Cc1[nH]c2nc1-c1ccccc1NC(=O)[C@H](C)CCC[C@@H]2N1CCC(c2c(F)ccc(Cl)c2F)=CC1=O [Example 220, TFA salt] — what was its Ki?
Reply: 21.7 nM

Task item: Sample COC(=O)Nc1ccc2c(c1)NC(=O)[C@H](C)CCC[C@H](N1CCC(c3c(OC(F)F)ccc(Cl)c3F)=CC1=O)c1ccnc-2c1 [Example 31, TFA salt] — what was its Ki?
Reply: 0.04 nM

Task item: Sample C[C@@H]1CCC[C@H](N2CCC(c3c(C#N)ccc(Cl)c3F)=CC2=O)c2cc(ccn2)-c2c(ccc(F)c2F)NC1=O [Example 208, TFA salt] — what was its Ki?
Reply: 1 nM

Task item: Sample C[C@@H]1CCC[C@H](N2CCC(c3c(C4CC4)ccc(Cl)c3F)=CC2=O)c2cc(ccn2)-c2ccccc2NC1=O [Example 52, TFA salt] — what was its Ki?
Reply: 45.6 nM

Task item: Sample C[C@@H]1CCC[C@H](N2CCC(c3c(F)ccc(Cl)c3F)=CC2=O)c2cc(ccn2)-c2ccc(Nc3ncccn3)cc2NC1=O [Example 16, TFA salt] — what was its Ki?
Reply: 1.15 nM
